// data source = paper PMC8270270

Provide the reported zone of inhibition at 5000 µg/mL of each item.
Test system: Candida tropicalis
protocol-text: Disco-diffuse method, fungicidal activity
Format: cell-based
setup-conditions: Candida tropicalis; compound concentration 5 mg/mL, 48 h at 32 °C; read-out: The Zone of Growth Inhibition
Description: The determination of compounds (I, IV, VI–XI) effect concerning microorganisms was carried out using test strains of Escherichia coli, Bacillus subtilis, and Candida tropicalis. They are not only natural inhabitants of natural biocenoses but also a part of human microbiocenosis. […] After the incubation period, the inhibition zone or stimulation of microbial growth around the disk was measured in the experimental and control samples. […]
Numeric answer plus unit only.

Prompt: Param item = CC(C)c1cc2c(cc1S(=O)(=O)O)C1(C)CCCC(C)(C(=O)O)C1CC2 (stereo not shown) [I, 12-sulfodehydroabietic acid] ; retrieve measured zone of inhibition at 5000 µg/mL.
Response: 0 mm

Prompt: Param item = CC(C)c1cc2c(cc1Br)C1(C)CCCC(C)(C(=O)O)C1CC2 (stereo not shown) [X, 12-bromodehydroabietic acid] ; retrieve measured zone of inhibition at 5000 µg/mL.
Response: 0 mm

Prompt: Param item = CC(C)C1=CC2=CC[C@@H]3[C@](C)(CCC[C@@]3(C)C(=O)O)[C@H]2CC1 ; retrieve measured zone of inhibition at 5000 µg/mL.
Response: 0 mm

Prompt: Param item = CC(C)C1=CC2=CCC3C(C)(CO)CCCC3(C)C2CC1 (stereo not shown) ; retrieve measured zone of inhibition at 5000 µg/mL.
Response: 1 mm

---

Test system: Escherichia coli
protocol-text: Disco-diffuse method, antibacterial activity
Format: cell-based
setup-conditions: Escherichia coli; compound concentration 25 mg/mL, 24 h at 37 °C; read-out: The Zone of Growth Inhibition
assay-metric: zone of inhibition at 25000 µg/mL

Prompt: So what zone of inhibition at 25000 µg/mL did CC(C)C1=CC2=CC[C@@H]3[C@](C)(CCC[C@@]3(C)C(=O)O)[C@H]2CC1 [IX, Abietic acid] get with Escherichia coli?
Response: 2 mm

Prompt: So what zone of inhibition at 25000 µg/mL did CC(C)c1cc2c(cc1S(=O)(=O)O)C1(C)CCCC(C)(C(=O)O)C1CC2 (stereo not shown) [I, 12-sulfodehydroabietic acid] get with Escherichia coli?
Response: 0 mm

Prompt: So what zone of inhibition at 25000 µg/mL did CC(C)C1=CC2=CCC3C(C)(CO)CCCC3(C)C2CC1 (stereo not shown) [XI, Abietinol] get with Escherichia coli?
Response: 3.5 mm

Prompt: So what zone of inhibition at 25000 µg/mL did CC(C)c1cc2c(cc1Br)C1(C)CCCC(C)(C(=O)O)C1CC2 (stereo not shown) [X, 12-bromodehydroabietic acid] get with Escherichia coli?
Response: 4.6 mm

---

Test system: Bacillus subtilis
protocol-text: Disco-diffuse method, antibacterial activity
Type: cell-based
setup-conditions: Bacillus subtilis; compound concentration 25 mg/mL, 24 h at 37 °C; read-out: The Zone of Growth Inhibition
assay-metric: zone of inhibition at 25000 µg/mL (mm)
I only need the number, in mm, no unit after it.

Prompt: Param item = CC(C)C1=CC2=CC[C@@H]3[C@](C)(CCC[C@@]3(C)C(=O)O)[C@H]2CC1 ; retrieve measured zone of inhibition at 25000 µg/mL.
Response: 4

Prompt: Param item = CC(C)C1=CC2=CCC3C(C)(CO)CCCC3(C)C2CC1 (stereo not shown) ; retrieve measured zone of inhibition at 25000 µg/mL.
Response: 4

Prompt: Param item = CC(C)c1cc2c(cc1S(=O)(=O)O)C1(C)CCCC(C)(C(=O)O)C1CC2 (stereo not shown) [I, 12-sulfodehydroabietic acid] ; retrieve measured zone of inhibition at 25000 µg/mL.
Response: 0

Prompt: Param item = CC(C)c1cc2c(cc1Br)C1(C)CCCC(C)(C(=O)O)C1CC2 (stereo not shown) [X, 12-bromodehydroabietic acid] ; retrieve measured zone of inhibition at 25000 µg/mL.
Response: 10.5
